Test Target: HLA-B*5301 (Homo sapiens, UniProt P01889, A329T/A93T/A95T/C349S/D201E/D98Y/E176V/E187L/E204Q/E69T/G107R/I218V/K202T/L105A/L119I/N104I/Q94N/R106L/R155S/R180L/S101N/S121R/S35A/S48A/T118I/V127L/V306I/V36M/Y140S/Y91F)
Procedure Text: HLA class I binding assay, B*5301
No end group written: not given here.
Measurement Type: IC50 (nM)

Query Sequence	Number
FPGCSFSIF [Peptide 1145.13]	3.2

---

Let's look at some compounds and their measured Immunogenicity Human, Barnaba; patients.
Test system: PBMC from HCV-infected patients
Procedure Text: CTL recall: recognition in vitro by PBMC from HCV-infected patients, 51Cr release
Format: cell-based, human
Experimental Parameters: responders/tested
Measurement Type: Immunogenicity Human, Barnaba; patients

Compound	Measurement Type	Result
CSCC[C@H](NC(=O)[C@@H](N)CCCNC(=N)N)C(=O)N[C@@H](Cc1ccc(O)cc1)C(=O)N[C@H](C(=O)NCC(=O)NCC(=O)N[C@H](C(=O)N[C@@H](CCC(=O)O)C(=O)N[C@@H](Cc1c[nH]cn1)C(=O)N[C@@H](CCCNC(=N)N)C(=O)O)C(C)C)C(C)C [Peptide 1073.13]	Immunogenicity Human, Barnaba; patients	5/16
CC(C)C[C@H](NC(=O)[C@@H](N)CCC(N)=O)C(=O)N[C@@H](Cc1ccccc1)C(=O)N[C@H](C(=O)N[C@@H](Cc1ccccc1)C(=O)N[C@@H](CO)C(=O)N1CCC[C@H]1C(=O)N[C@@H](CCCNC(=N)N)C(=O)N[C@@H](CCCNC(=N)N)C(=O)O)[C@@H](C)O [Peptide 1.0955]	Immunogenicity Human, Barnaba; patients	1/16
CC(C)C[C@H](NC(=O)[C@H](C)NC(=O)CNC(=O)[C@H](C)NC(=O)[C@@H](NC(=O)CN)C(C)C)C(=O)N[C@H](C(=O)N[C@@H](C)C(=O)N[C@@H](Cc1ccccc1)C(=O)N[C@@H](CCCCN)C(=O)O)C(C)C [Peptide 1073.10]	Immunogenicity Human, Barnaba; patients	3/16
CC(C)C[C@H](NC(=O)[C@@H](N)CCCNC(=N)N)C(=O)NCC(=O)N[C@H](C(=O)N[C@@H](CCCNC(=N)N)C(=O)N[C@@H](C)C(=O)N[C@H](C(=O)N[C@@H](CCCNC(=N)N)C(=O)N[C@@H](CCCCN)C(=O)O)[C@@H](C)O)C(C)C [Peptide 1073.11]	Immunogenicity Human, Barnaba; patients	4/16
C[C@@H](O)[C@H](NC(=O)[C@@H](N)CCCCN)C(=O)N[C@@H](CO)C(=O)N[C@@H](CCC(=O)O)C(=O)N[C@@H](CCCNC(=N)N)C(=O)N[C@@H](CO)C(=O)N[C@@H](CCC(N)=O)C(=O)N1CCC[C@H]1C(=O)N[C@@H](CCCNC(=N)N)C(=O)O [Peptide 1.0952]	Immunogenicity Human, Barnaba; patients	2/16
CC[C@H](C)[C@H](NC(=O)[C@@H](N)CC(C)C)C(=O)N[C@@H](Cc1ccccc1)C(=O)N[C@@H](CS)C(=O)N[C@@H](Cc1c[nH]cn1)C(=O)N[C@@H](CO)C(=O)N[C@@H](CCCCN)C(=O)N[C@@H](CCCCN)C(=O)N[C@@H](CCCCN)C(=O)O [Peptide 1.0123]	Immunogenicity Human, Barnaba; patients	6/16
CC(C)C[C@H](NC(=O)[C@H](C)NC(=O)CNC(=O)[C@H](C)NC(=O)[C@@H](N)C(C)C)C(=O)N[C@H](C(=O)N[C@@H](C)C(=O)N[C@@H](Cc1ccccc1)C(=O)N[C@@H](CCCCN)C(=O)O)C(C)C [Peptide 24.0090]	Immunogenicity Human, Barnaba; patients	4/16
